Experiment: in vitro
Settings: dog
quantity: CC50 (µM)

1. Cn1cc(-c2cccc3cc(C(=O)NC(=N)N)ccc23)cn1 = 32
